target: HLA-A*11:01; test: IEDB peptide-MHC binding, purified MHC/competitive/radioactivity; bounds were set here for any values at or beyond the usual limits of such assays; conditions: source organism: Homo sapiens
Provide the recorded IC50 for the entries that follow.
Numbers only, in µM.

Known results for sequences:
• ALYLVCGER = 28.3
• RFKMFPEVK = 18.3

Please look at the following sequence next.
In plain terms, LVCGERGFFY has a documented IC50 of 27.2

---

Provide the recorded pIC50 for the entries that follow.
target: HLA-A*24:02; test: IEDB peptide-MHC binding, purified MHC/competitive/radioactivity; bounds were set here for any values at or beyond the usual limits of such assays; conditions: source organism: Homo sapiens
Numbers only, as −log10 of the molar value.

Known results for sequences:
• ALWMRLLPLL = 5.21
• LWMRLLPLL = 6.26
• RLLPLLALL = 4.99

Each sequence below has a recorded value; state its pIC50.
1. ALWGPDPAAAF
2. LYLVCGERGF

Given back:
1. 4.82
2. 5.28

---

target: HLA-A*01:01; test: IEDB peptide-MHC binding, purified MHC/competitive/radioactivity; bounds were set here for any values at or beyond the usual limits of such assays; conditions: source organism: Homo sapiens
experimentalReadout: pIC50
Numbers only, as −log10 of the molar value.

Entry GSHLVEALY , tested on HLA-A*01:01, has a reported pIC50 of 4.52

---

Provide the recorded pIC50 for the entries that follow.
target: HLA-B*08:01; assay: IEDB peptide-MHC binding, purified MHC/competitive/radioactivity; bounds were set here for any values at or beyond the usual limits of such assays; details: source organism: Homo sapiens
Give bare numbers, as −log10 of the molar value.

Each sequence below has a recorded value; state its pIC50.
1. ALWMRLLPLL
2. FYTPKTRRE
3. GERGFFYT
4. ALWMRLLPL

Given back:
7.48
4.88
5.86
6.97

---

target: HLA-B*51:01; experiment: IEDB peptide-MHC binding, purified MHC/competitive/radioactivity; bounds were set here for any values at or beyond the usual limits of such assays; details: source organism: Homo sapiens
experimentalReadout: IC50 (µM)
One number for each entry, in µM.

In plain terms, LPLLALLAL has a documented IC50 of 1.16

---

molecular target: HLA-B*07:02; assay: IEDB peptide-MHC binding, purified MHC/competitive/radioactivity; bounds were set here for any values at or beyond the usual limits of such assays; conditions: source organism: Homo sapiens
experimentalReadout: IC50 (µM)
Give bare numbers, in µM.

Known results for sequences:
- WMRLLPLLAL: 2.36
- APVIKARMM: 18.3

Please look at the following sequence next.
In plain terms, IPSDLERRIL has a documented IC50 of 3.86
